System: Acinetobacter baumannii
ASSAY_NAME: Antibacterial activity against OXA-23-producing Acinetobacter baumannii SA-Rd-KAMC-083 assessed as reduction in […] growth at 0.01 to 30 uM incubated for 24 hrs by spectrophotometry based broth microdilution assay
Type: functional, organism-based
Active and inactive are the calls of the source. The rule behind the calls is not given here.
VALUE_KIND: Activity

CC(C)[C@H]1CC[C@@]2(OC(=O)/C(=C/[C@H]3C4=C(CC[C@@H]3C(C)C)COC4=O)CO)COC(=O)[C@H]2[C@@H]1/C=C(\CO)C(=O)O
inactive
CC(C)[C@H]1CC[C@@](O)(COC(=O)/C(=C/[C@H]2C3=C(CC[C@@H]2C(C)C)COC3=O)CO)[C@@H](C(=O)O)[C@@H]1/C=C(\CO)C(=O)O
inactive
CC(C)[C@H]1CC[C@@](O)(COC(=O)/C(=C/[C@H]2C=C(CO)CC[C@@H]2C(C)C)CO)[C@H]2C(=O)OCC(C(=O)O[C@@]34CC[C@H](C(C)C)[C@@H](/C=C(\CO)C(=O)O)[C@@H]3C(=O)OC4)=C[C@H]12
inactive
